Data provenance is patent US20260234276A1.

# Subject of test: pm3 (human, sulfated tyrosine at Y17)
# Sequence (peptide, as listed by the source): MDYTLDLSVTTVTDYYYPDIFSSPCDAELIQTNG
# Experiment: ELISA on coated peptide [cont.]

{"columns": ["Binder", "binding result"],
 "data": [
  ["3-44 (antibody, V domains shown) VH: QVQLKESGPGLVAPSQSLSITCTVSGFSLTDYGVSWIRQPPGKGPEWLGVIWGGGNTYYNSVLKSRLSISNDNSKSQVFLRMNSLQTADTAIYYCARPRRDYYALDYWGQGTSVTVAS VL: DVVMTQTPLSLPVSLGDQASISCRSSQSLVYTNGNTFLHWYLQKPGQSPKLLIYKVSNRFSGVPDRFSGSGSGTDFTLKISRVEAEDLGVYFCSQSTHVPPTFGGGTKLEIK", "binds"],
  ["3-28 (antibody, V domains shown) VH: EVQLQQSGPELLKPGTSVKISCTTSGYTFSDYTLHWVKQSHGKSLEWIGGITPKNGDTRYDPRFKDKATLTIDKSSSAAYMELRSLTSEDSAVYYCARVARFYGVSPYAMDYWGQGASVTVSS VL: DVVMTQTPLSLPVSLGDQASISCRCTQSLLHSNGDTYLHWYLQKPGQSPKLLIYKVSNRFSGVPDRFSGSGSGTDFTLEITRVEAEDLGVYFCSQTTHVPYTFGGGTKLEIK", "binds"]
]}
